The reported measurements were obtained from PubChem BioAssay (NCI).

- Test system: HOP-62 NSCLC
- Assay Remarks: NCI tumour cell line growth inhibition, 48 h; in the data active = GI50 below about 0.43 µM; inactive = the rest
Where a SMILES comes first, the peptide text is derived from it. [ ]: non-standard residue; d: D form. The star is where a group is joined. ξ: configuration not given here. NMeF = CN[C@@H](Cc1ccccc1)C(=O)O; NMeN = CN[C@@H](CC(N)=O)C(=O)O; NMeV = CN[C@H](C(=O)O)C(C)C; ξNMeV = CNC(C(=O)O)C(C)C; Boc = CC(C)(C)OC(=O)*; ξNMeA = CNC(C)C(=O)O; ξV = CC(C)C(N)C(=O)O
API: response.call in True for active, False for inactive

Any idea what this test logged for c1ccc(-c2nc([P+](c3ccccc3)(c3ccccc3)c3ccccc3)c(N3CCOCC3)o2)cc1 ? False

Any idea what this test logged for CN1CCN(Cc2ccc(NC(=O)c3cncc(C#Cc4cnc5ccc(Cl)nn45)c3)cc2C(F)(F)F)CC1 ? False

Others:
Any idea what this test logged for COC(=O)C(C)N(C)C(=O)[C@H](CC(N)=O)N(C)C(=O)[C@@H]1CCCN1C(=O)[C@H](C(C)C)N(C)C(=O)C(C(C)C)N(C)C(=O)[C@H](Cc1ccccc1)N(C)C(=O)C(NC(=O)OC(C)(C)C)C(C)C (some centres undefined) (Boc-[ξV][NMeF][ξNMeV][NMeV]P[NMeN][ξNMeA]-OMe) ? False

Any idea what this test logged for CNC[C@@H](NC(=O)c1ccc(-c2nc([C@H]3CC[C@H](O)[C@@H](F)C3)cnc2N)cc1F)c1cc(F)cc(Br)c1 ? False

Any idea what this test logged for Cc1cnc(NC2CCOCC2)nc1-n1cnc(C(=O)N[C@H](CN)c2cc(F)cc(Cl)c2)c1 ? True

Any idea what this test logged for Oc1cc(Cn2cnc3c(Cl)nc(Cl)nc32)ccc1C12CC3CC(CC(C3)C1)C2 ? False

Any idea what this test logged for CCC(C)C1=NC(C(=O)N/C=C\c2c[nH]c3cc(Br)c(Br)cc23)(C(C)C)NC1=O (centres undefined) ? False

Any idea what this test logged for C/C(=N\NC(=O)c1ccccc1N)c1ccccc1O ? False

Any idea what this test logged for CCOC(=O)C#Cc1c(C(=O)OCC)nnn1Cc1ccc(C(F)(F)F)cc1 ? False

----------
- Tested on: EKVX NSCLC
- Assay Remarks: NCI tumour cell line growth inhibition, 48 h; in the data active = GI50 below about 0.43 µM; inactive = the rest
API: response.call in true = active, false = inactive

Example results:
Any idea what this test logged for CC1CN=C(c2cccc(-c3ccc(-c4ccccc4)o3)c2)N1 (stereo not given) ? false

Any idea what this test logged for COc1cccc(-n2ncc3c(N/N=C/c4cccc(F)c4)ncnc32)c1 ? false

Any idea what this test logged for CN(C)c1ccc(N=Nc2ccc(Br)cn2)c(O)c1 ? true

Any idea what this test logged for Clc1ccc(-c2nc(-c3ccccc3)cn3ccnc23)cc1 ? false

Any idea what this test logged for O=C(c1cccs1)c1c(C(F)(F)F)n([O-])c2ccc(Cl)cc2[n+]1=O ? true

Any idea what this test logged for O=c1[nH]c2c3ccncc3cc(-c3cccc(Cl)c3)c2c2cnccc12 ? false

Any idea what this test logged for CC(C)CC(=O)[O-].CC(C)CC(=O)[O-].N.N.N.N.[Co+3].[O-][Cl+3]([O-])([O-])O.[O-][Cl+3]([O-])([O-])[O-] ? false

Any idea what this test logged for CNCCC/C=C1\c2cc3c(cc2-c2c1c1cc(OC)c(OC)cc1c(=O)n2C)OCO3 ? false

Others:
Any idea what this test logged for Cc1oc2nc[nH]c(=O)c2c1C(=O)/C=C/c1ccc(Br)cc1 ? false

Any idea what this test logged for COc1ccc2c(c1)C(=O)c1c-2c(=O)n(CCCCCCC(=O)NO)c2ccccc12 ? false

----------
// TGI lookup, one value per entry
- System: HCT-116 colon
- Assay Remarks: NCI tumour cell line growth inhibition, 48 h
# value in µM; strip the unit string

Under HCT-116 colon: TGI value of Cc1nc(Nc2ccc(Cl)cc2)sc1C(=O)NNC(=O)C(=O)NN ? 33.9

# context switch: different molecule, same TGI
Under HCT-116 colon: TGI value of C=C1C(=O)O[C@H]2[C@H]1CC/C(COC(=O)NCc1c[nH]c3ccc(Br)cc13)=C\CC[C@@]1(C)O[C@@H]21 ? 1.98

----------
// TGI lookup, one value per entry
- Tested on: NCI-H460 lung
- Assay Remarks: NCI tumour cell line growth inhibition, 48 h

# example entries with known answers
Would you kindly share the measured TGI for C/C=C/CC(S(=O)(=O)c1ccccc1)S(=O)(=O)c1ccccc1 ? > 100 µM

Would you kindly share the measured TGI for CCN1CCN(Cc2ccc(NC(=O)c3nc4ccc5[nH]ncc5c4c4c3CCCC4)cc2C(F)(F)F)CC1 ? 1.78 µM

Would you kindly share the measured TGI for CCC1(CN(C)C)CC/C(=C\c2ccc(OC)cc2)C1=O (stereo unspecified) ? > 100 µM

Would you kindly share the measured TGI for COc1ccc(CNC(=O)[C@H](Cc2ccc(O)cn2)NC(C)=O)cc1OC ? > 100 µM

Would you kindly share the measured TGI for CN(CCCN(C)Cc1ccc(Cl)c(Cl)c1)CCN1CCCC1 ? 70.5 µM

Would you kindly share the measured TGI for C[C@@]1(O)C2C3CC4C5C3C1[C@](O)(C42)[C@H]5Br (stereo partly specified) ? > 100 µM

Others:
Would you kindly share the measured TGI for COC(=O)C1C(O)C(C)C(O)C(C)(O)/C=C/C=C(C)C(=O)Nc2c(C)c(OC(C)=O)c3c(c2O)C(=O)C(C)=C2OCOC(=C23)C(C)=CC(C)(O)C(O)C(C)C1OC(C)=O (stereo unspecified) ? 38.6 µM

Would you kindly share the measured TGI for O=C(Cc1ccc(OCc2ccccc2)cc1)NCc1ccc2c(c1)OCO2 ? > 100 µM

Would you kindly share the measured TGI for Nc1ncnc2c1ncn2C1OC(CO)C2OC21 (stereo unspecified) ? > 10 µM

Would you kindly share the measured TGI for Clc1ccc(Cc2nc3cc(Cl)ccc3o2)cc1 ? > 100 µM

Would you kindly share the measured TGI for C/C(=C\C(=N\N=C(N)N)c1ccc(Cl)cc1)c1ccc(Cl)cc1 ? 2.66 µM

----------
// TGI lookup, one value per entry
- System: MDA-MB-231 breast
- Assay Remarks: NCI tumour cell line growth inhibition, 48 h

# example entries with known answers
Would you kindly share the measured TGI for O=c1[nH]c2c3ccncc3cc(-c3cccc(Cl)c3)c2c2cnccc12 ? > 100 µM

Would you kindly share the measured TGI for CC(=O)O[C@H]1C(=O)[C@@]2(C)[C@H]([C@H](OC(=O)C3CCCCC3)[C@]3(O)C[C@H](OC(=O)[C@H](O)[C@@H](NC(=O)OC(C)(C)C)c4ccccc4)C(C)=C1C3(C)C)[C@]1(OC(C)=O)CO[C@@H]1C[C@@H]2O ? > 6.31 µM

Would you kindly share the measured TGI for C=CCCC1CCCCNC1=S (centres undefined) ? > 10 µM

Others:
Would you kindly share the measured TGI for CC(C)c1nc(Cl)nc(Cl)c1Cl ? 5.64 µM

----------
- System: SF-295 CNS
- Assay Remarks: NCI tumour cell line growth inhibition, 48 h
// GI50 lookup, one value per entry

Under SF-295 CNS: GI50 value of COc1cccc(-n2ncc3c(N/N=C/c4cccc(F)c4)ncnc32)c1 ? 8.19 µM

Under SF-295 CNS: GI50 value of NC(=O)c1cc(Cl)ccc1NC(=O)COc1ccccc1 ? 1.96 µM

Under SF-295 CNS: GI50 value of O=c1c2[nH]ccc2nc2n1CCS2 ? > 100 µM

----------
- System: RXF 393 renal
- Assay Remarks: NCI tumour cell line growth inhibition, 48 h
Test Readout: TGI

# example entries with known answers
Would you kindly share the measured TGI for COc1ccc2cc(C(=O)NCCCNC(=O)c3ccc4c(OC)c(OC)ccc4c3)ccc2c1OC ? > 100 µM

Would you kindly share the measured TGI for O=c1c2[nH]ccc2nc2n1CCS2 ? > 100 µM

Would you kindly share the measured TGI for N=C(N)CCNC(=O)C1CCC(N)=N1 (stereo unspecified) ? > 94.4 µM

Others:
Would you kindly share the measured TGI for C/C=C/CC(S(=O)(=O)c1ccccc1)S(=O)(=O)c1ccccc1 ? > 100 µM

Would you kindly share the measured TGI for CC(=O)c1cccc(NC(=O)C(=O)C(C(=O)NN)c2ccccc2)c1 (stereo unspecified) ? > 100 µM

Would you kindly share the measured TGI for Cc1ccc(-n2c(=S)[nH]c3ccc(Br)cc3c2=O)cc1 ? > 100 µM

----------
- System: PC-3 prostate
- Assay Remarks: NCI tumour cell line growth inhibition, 48 h
Test Readout: TGI

Would you kindly share the measured TGI for CCOC(=O)C#Cc1c(C(=O)OCC)nnn1Cc1ccc(C(F)(F)F)cc1 ? 22 µM

Would you kindly share the measured TGI for O=C1C(=C2SC(c3ccccc3)(c3ccccc3)c3ccccc32)C(=O)c2ccccc21 ? > 100 µM

Would you kindly share the measured TGI for O=c1oc2ccccc2c(O)c1/C=N\c1nc(-c2ccc(O)c(O)c2)cs1 ? 10.6 µM

Would you kindly share the measured TGI for COc1ccc(C=C2C(=O)NC(=S)NC2=O)c2ccccc12 ? 83.3 µM

# context switch: different compound, same TGI
Would you kindly share the measured TGI for COc1nc2ncc([C@@H](O)[C@H](O)CO)nc2c(=O)n1C ? > 100 µM
